tested on: M19-MEL melanoma; experiment: NCI tumour cell line growth inhibition, 48 h
Readout Kind: TGI

Please report TGI for every entry that follows.
1. Clc1cccc(Cl)c1C1SCc2nc3ccccc3n21 (centres undefined)
2. CN(C)CCNc1ccc2nnn3c4ccccc4c(=O)c1c23
3. COC1=C(OC)C(O)(c2ccccc2)C1=O (centres undefined)
4. COc1cccc2c1N[S@](=O)S2
5. O=S1(=O)OCCOS(=O)(=O)C1(Br)Cc1ccccc1
6. CCCCCCCCCCCCCCCC/C(C(=O)OC)=C(/O)C(=O)OCC
7. O=C1OC(O)c2cc3c(cc21)OCO3 (centres undefined)

Marked response:
["> 100 µM", "9.42 µM", "> 100 µM", "> 100 µM", "> 100 µM", "> 100 µM", "> 100 µM"]

For each of the molecules below, state TGI.
1. CCCCCCCCCCCCCC(=O)OC1C(O)C(CO)OC(OC)C1NC(=O)N(CCCl)N=O (centres undefined)
2. COC(=O)/C=C/C1C2C3(CCC(C)C12C)OCCS3 (centres undefined)
3. O=C(c1nc2ccc(Cl)cc2[nH]c1=O)C(O)c1ccccc1 (centres undefined)
4. CCCCCCCCOCC(CO)OCCCCCCCC (centres undefined)
5. CCCCCC(=O)N[C@H]1CCc2cc(O)c(O)c(O)c2-c2ccc(SC)c(=O)cc21
6. O=[N+]([O-])c1ccc(C2=Nn3c(nnc3-c3ccccc3)SC2)o1

Marked response:
1: > 100 µM; 2: > 100 µM; 3: > 100 µM; 4: 36.3 µM; 5: 53.1 µM; 6: 41.1 µM

Exam item: // TGI lookup, key: CC1CCC2(OCCO2)[C@]2(C)CC(O)C(=O)C=C12 (some centres undefined)
Marked response: > 100 µM

====

Assign GI50 to each entry below.
system: EKVX NSCLC; experiment: NCI tumour cell line growth inhibition, 48 h

Example entries and their recorded answers appear below.
- Chemical Structure: "N#Cc1c(-c2ccccc2)cc(-c2ccccc2)n(CCCC(=O)NO)c1=O"
  GI50: "1800 nM"
- Chemical Structure: "NCCCCCCCCCCn1c2c(c3ccccc3c1=O)C(=O)c1ccccc1-2"
  GI50: "17300 nM"

Then there is this compound:
Exam item: Recorded GI50 for `COc1ccc(-c2cc(-c3ccccc3)nc(SCCCC(=O)NO)n2)cc1OC` with EKVX NSCLC, please?
Marked response: 1180 nM

====

tested on: NCI-H460 lung
Answer with one of the outcomes given here: yes (1) for active, no (0) for inactive

- Compound: "CC(=O)/C=C/c1ccc(OCc2ccc(C(C)(C)C)cc2)cc1"
  Class: "no (0)"
- Compound: "CS(=O)(=O)O[C@H]1C(=O)N(c2cc3c4ccccc4ccc3c3ccccc23)[C@@H]1c1ccccc1"
  Class: "no (0)"
- Compound: "CCO/C=N/C1=C(C#N)C(c2ccc(OC)cc2)c2sc3c(F)cccc3c2O1 (configuration not stated)"
  Class: "no (0)"
- Compound: "CC(C)=[CH][Sb]([Br])([CH]=C(C)C)([CH]=C(C)C)[c]1ccccc1"
  Class: "no (0)"
- Compound: "Cn1ccc(=O)c2c(O)c3ccccc3c(O)c21"
  Class: "no (0)"

Exam item: Status in this test for `COc1cc2ccnc(C=O)c2cc1OC` ?
Marked response: no (0)

Exam item: Can you handle `CCC[CH2][Sn]1([CH2]CCC)[O]C(=O)c2cccc(C)c2[O]1` next?
Marked response: no (0)

Exam item: Thanks! And `CC(C)=CCC/C(C)=C/CC/C(C)=C/CC/C(C)=C/CSC[C@H](NC(=O)CCCCCN1CCN(C)CC1)C(=O)NC1CCCCC1` ?
Marked response: no (0)

Exam item: Okay, and `[N-]=[N+]=NCCCn1c2c(c3cc4c(cc3c1=O)OCO4)C(=O)c1ccccc1-2` ?
Marked response: no (0)

Exam item: Again, but for `Nc1nc(N)c(N=Nc2ccccc2)c(-c2ccccc2)n1`
Marked response: no (0)

Exam item: Another compound: `O=C(Nc1nc(-c2ccc(Cl)cc2)cs1)c1cc(-c2ccc(Br)cc2)nc2ccc(Cl)cc12`
Marked response: no (0)

Exam item: What about CC1(C)CN(c2cc(C(F)(F)F)cc3cncn23)CCC12NC(=O)NC2=O (configuration not stated) ?
Marked response: no (0)

Exam item: What do we get for `N#Cc1c(-c2ccccc2)cc(-c2ccccc2)n(CCCC(=O)NO)c1=O` ?
Marked response: no (0)

Exam item: Now give it for `CCn1c(=O)c(Oc2ccc(F)cc2F)cc2cnc(NC3CCOCC3)nc21` too.
Marked response: no (0)

Exam item: And C=C(CNCCc1ccc(O)cc1)[C@@H]1CC[C@]2(CO)CC[C@]3(C)[C@H](CC[C@@H]4[C@@]5(C)CCC(NCCc6ccc(O)cc6)C(C)(C)[C@@H]5CC[C@]43C)[C@@H]12 (some centres not stated) ?
Marked response: yes (1)

Exam item: Could you do the same for `C[n+]1c(-c2ccccc2)c2cc(N)ccc2c2ccccc21` , please?
Marked response: no (0)

Exam item: Same lookup for `O=C1Nc2ccccc2/C1=C\c1c(Cl)nc2sccn12` , please.
Marked response: no (0)
